measuredTarget: protocollagen-proline hydroxylase (Gallus gallus)
Construct: partially purified enzyme preparation obtained from chick embryos; from tissue; host or cells: chick embryos (partially purified enzyme)
Sequence (P16924 whole entry): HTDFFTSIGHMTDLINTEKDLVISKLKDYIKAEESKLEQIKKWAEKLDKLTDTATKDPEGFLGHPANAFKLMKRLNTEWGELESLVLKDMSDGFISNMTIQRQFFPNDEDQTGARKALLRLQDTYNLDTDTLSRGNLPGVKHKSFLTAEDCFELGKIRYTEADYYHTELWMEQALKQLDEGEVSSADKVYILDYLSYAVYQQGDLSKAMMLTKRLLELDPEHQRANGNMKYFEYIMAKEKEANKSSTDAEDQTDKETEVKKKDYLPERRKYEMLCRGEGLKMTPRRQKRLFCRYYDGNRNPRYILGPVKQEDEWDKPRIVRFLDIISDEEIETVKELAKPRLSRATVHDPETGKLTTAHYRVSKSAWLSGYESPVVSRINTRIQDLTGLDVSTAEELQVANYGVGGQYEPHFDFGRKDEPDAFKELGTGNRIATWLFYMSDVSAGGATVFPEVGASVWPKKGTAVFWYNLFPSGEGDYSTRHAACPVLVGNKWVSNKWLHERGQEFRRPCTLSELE
Sequence (P09102 23-515 partner): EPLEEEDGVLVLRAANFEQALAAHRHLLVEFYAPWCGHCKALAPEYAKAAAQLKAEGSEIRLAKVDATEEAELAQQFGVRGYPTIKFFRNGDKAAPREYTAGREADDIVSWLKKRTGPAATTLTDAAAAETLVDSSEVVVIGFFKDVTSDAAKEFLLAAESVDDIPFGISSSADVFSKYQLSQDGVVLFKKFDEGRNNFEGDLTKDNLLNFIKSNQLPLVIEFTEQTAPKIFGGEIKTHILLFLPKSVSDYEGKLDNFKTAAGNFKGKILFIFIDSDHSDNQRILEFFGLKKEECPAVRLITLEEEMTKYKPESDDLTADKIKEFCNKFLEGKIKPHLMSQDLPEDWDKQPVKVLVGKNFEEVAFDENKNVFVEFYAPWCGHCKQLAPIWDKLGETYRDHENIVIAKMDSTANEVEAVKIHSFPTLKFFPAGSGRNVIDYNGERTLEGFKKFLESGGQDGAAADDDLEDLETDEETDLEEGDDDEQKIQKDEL
methodDescription: Inhibitory activity of protocollagen-proline hydroxylase
Assay type: biochemical, chick embryos
conditionNotes: 10 μM
# Lookup of reported inhibition at 10 µM keyed by entry
Report as: number unit

input: Provide protocollagen-proline hydroxylase (Gallus gallus) inhibition at 10 µM reading for COC1=C(OC)C(=O)C(/C=C/C(C)=O)=C(C)C1=O [drawing 26] .
output: 85%

input: Provide protocollagen-proline hydroxylase (Gallus gallus) inhibition at 10 µM reading for COC(=O)/C=C/C=C/C=C/C=C/C1=C(C)C(=O)C(OC)=C(OC)C1=O .
output: 38%

input: Provide protocollagen-proline hydroxylase (Gallus gallus) inhibition at 10 µM reading for COC1=C(OC)C(=O)C(/C=C/C(=O)O)=C(C)C1=O [drawing 25] .
output: 37%

More entries:
input: Provide protocollagen-proline hydroxylase (Gallus gallus) inhibition at 10 µM reading for COC1=C(OC)C(=O)C(c2nc3cc(C(C)C(=O)O)ccc3o2)=C(C)C1=O (centres unmarked) .
output: 54%

input: Provide protocollagen-proline hydroxylase (Gallus gallus) inhibition at 10 µM reading for COC1=C(OC)C(=O)C(CCOc2ccc(/C=C/C(=O)O)cc2)=C(C)C1=O .
output: 99.9%

input: Provide protocollagen-proline hydroxylase (Gallus gallus) inhibition at 10 µM reading for COC1=C(OC)C(=O)C(COc2ccc(C(C)C(=O)O)cc2)=C(C)C1=O (centres unmarked) .
output: 100%

input: Provide protocollagen-proline hydroxylase (Gallus gallus) inhibition at 10 µM reading for COC1=C(OC)C(=O)C(CCOc2ccc(CC(=O)O)cc2)=C(C)C1=O .
output: 100%

input: Provide protocollagen-proline hydroxylase (Gallus gallus) inhibition at 10 µM reading for COC1=C(OC)C(=O)C(CC=C(C)COc2ccc(CC(=O)O)cc2)=C(C)C1=O [drawing 20] .
output: 34%
